Biological target: anti-CC49 variable region antibodies in the serum of patient five
Assay: HPLC, 125I-HuCC49 + serum + 5 Tg competitor; fewer complexes = competitor bound
readout.label: percent of complexes (%)
Value expressed in %; do not type the unit.

Prompt: Please look up its percent of complexes: HuCC49 CDR variant L-1 (antibody, V domains shown) VH: QVQLVQSGAEVVKPGASVKISCKASGYTFTDHAIHWVKQNPGQRLEWIGYFSPGNDDFKYNERFKGKATLTADTSASTAYVELSSLRSEDTAVYFCTRSLNMAYWGQGTLVTVSS VL: DIVMSQSPDSLAVSLGERVTLNCKSSQSVLYSSNSKNYLAWYQQKPGQSPKLLIYWASARESGVPDRFSGSGSGTDFTLTISSVQAEDVAVYYCQQYYSYPLTFGAGTKLELK
Completion: 14.3

Prompt: Please look up its percent of complexes: HuCC49 CDR variant L-1,2 (antibody, V domains shown) VH: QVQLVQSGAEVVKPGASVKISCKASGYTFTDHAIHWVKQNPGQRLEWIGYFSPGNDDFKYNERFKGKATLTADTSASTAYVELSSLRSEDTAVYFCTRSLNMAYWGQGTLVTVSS VL: DIVMSQSPDSLAVSLGERVTLNCKSSQSVLYSSNSKNYLAWYQQKPGQSPKLLIYWASTRESGVPDRFSGSGSGTDFTLTISSVQAEDVAVYYCQQYYSYPLTFGAGTKLELK
Completion: 20.2

Prompt: Please look up its percent of complexes: HuCC49 CDR variant H-1 (antibody, V domains shown) VH: QVQLVQSGAEVVKPGASVKISCKASGYTFTSYAMHWVKQNPGQRLEWIGYFSPGNDDFKYNERFKGKATLTADTSASTAYVELSSLRSEDTAVYFCTRSLNMAYWGQGTLVTVSS VL: DIVMSQSPDSLAVSLGERVTLNCKSSQSLLYSGNQKNYLAWYQQKPGQSPKLLIYWASARESGVPDRFSGSGSGTDFTLTISSVQAEDVAVYYCQQYYSYPLTFGAGTKLELK
Completion: 3.5
